# measured-target: T1, nfP2X7 CAR 1
# T1 construct: CAR-positive cells gated by the co-expressed EGFR marker; also called nfP2X7 targeted CAR; nfP2X7 CAR on EGFR+ T cells
# method: flow cytometry, anti-His-FITC, MFI on EGFR+ (CAR+) over EGFR- (CAR-) T cells
measured-parameter: HisTag MFI Ratio of EGFR+/EGFR-
No unit in the answer, please; the number alone is enough.

* CD19 BRIDGE variant B20 (Fab, V domains shown) VH: EVQLVESGGGLVKPGGSLKLSCAASGYTFTSYVMHWVRQAPGKGLEWIGYINPYNDGTKYNEKFQGRVTISSDKSISTAYMELSSLRSEDTAMYYCARGTYYYGTRVFDYWGQGTLVTVSS VL: DIVMTQSPATLSLSPGERATLSCRSSKSLQNVNGNTYLYWFQQKPGQSPQLLIYRMSNLNSGVPDRFSGSGSGTEFTLTISSLEPEDFAVYYCMQHLEYPITFGAGTKLEIKR | 4.1
* CD19 BRIDGE variant B25 (Fab, V domains shown) VH: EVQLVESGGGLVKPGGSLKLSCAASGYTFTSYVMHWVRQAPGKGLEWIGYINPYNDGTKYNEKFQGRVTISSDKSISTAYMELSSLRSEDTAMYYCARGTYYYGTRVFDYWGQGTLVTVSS VL: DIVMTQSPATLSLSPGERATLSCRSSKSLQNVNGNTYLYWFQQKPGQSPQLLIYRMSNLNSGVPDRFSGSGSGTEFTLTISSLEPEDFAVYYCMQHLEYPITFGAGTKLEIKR | 4

Item CD19 BRIDGE variant B9 (Fab, V domains shown) VH: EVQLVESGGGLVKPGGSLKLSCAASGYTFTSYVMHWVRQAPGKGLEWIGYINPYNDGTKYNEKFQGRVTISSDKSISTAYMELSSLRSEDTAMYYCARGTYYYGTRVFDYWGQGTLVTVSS VL: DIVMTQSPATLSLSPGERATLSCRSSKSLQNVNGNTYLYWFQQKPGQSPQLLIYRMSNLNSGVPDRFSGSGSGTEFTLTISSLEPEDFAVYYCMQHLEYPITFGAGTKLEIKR has what recorded HisTag MFI Ratio of EGFR+/EGFR-?
4.1
